- Tested on: ATP;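 further: ATP exposure 15 min at 22 °C before imaging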
- run_description: switch fluorescence ratio, 500 uM ATP over buffer (Cy3 cluster intensity, sum of 5 cycles each) (fold (ratio)); higher = stronger signal-on switching upon ATP binding; sequences stand for … in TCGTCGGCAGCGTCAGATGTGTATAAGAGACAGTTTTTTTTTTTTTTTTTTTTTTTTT…TC
- test_context: aptamer strand: ATP DNA aptamer (quencher-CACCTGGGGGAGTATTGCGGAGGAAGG + anchor), 100 nM annealed; ATP concentration: 500 uM

>  <construct_sequence>
AACGGAGTGG

>  <assay_target>
ATP;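 further: ATP exposure 15 min at 22 °C before imaging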

>  <switch fluorescence ratio>
1

$$$$
>  <construct_sequence>
TGGCAGTGTG

>  <assay_target>
ATP;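 further: ATP exposure 15 min at 22 °C before imaging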

>  <switch fluorescence ratio>
1.05

$$$$
>  <construct_sequence>
GGAATCATAG

>  <assay_target>
ATP;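 further: ATP exposure 15 min at 22 °C before imaging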

>  <switch fluorescence ratio>
1.06

$$$$
>  <construct_sequence>
GGTTATTTA

>  <assay_target>
ATP;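 further: ATP exposure 15 min at 22 °C before imaging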

>  <switch fluorescence ratio>
0.992

$$$$
>  <construct_sequence>
GATTTGTGTC

>  <assay_target>
ATP;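 further: ATP exposure 15 min at 22 °C before imaging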

>  <switch fluorescence ratio>
0.955

$$$$
>  <construct_sequence>
ATCATGCTTC

>  <assay_target>
ATP;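 further: ATP exposure 15 min at 22 °C before imaging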

>  <switch fluorescence ratio>
0.994

$$$$
>  <construct_sequence>
ACAGGACGGA

>  <assay_target>
ATP;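 further: ATP exposure 15 min at 22 °C before imaging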

>  <switch fluorescence ratio>
1.03

$$$$
>  <construct_sequence>
GAAATGGGGT

>  <assay_target>
ATP;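 further: ATP exposure 15 min at 22 °C before imaging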

>  <switch fluorescence ratio>
0.977

$$$$
>  <construct_sequence>
AAGTTGAGTT

>  <assay_target>
ATP;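 further: ATP exposure 15 min at 22 °C before imaging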

>  <switch fluorescence ratio>
1.01

$$$$
>  <construct_sequence>
TGTAAGACCC

>  <assay_target>
ATP;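 further: ATP exposure 15 min at 22 °C before imaging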

>  <switch fluorescence ratio>
1.06

$$$$
>  <construct_sequence>
TATAATATCG

>  <assay_target>
ATP;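 further: ATP exposure 15 min at 22 °C before imaging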

>  <switch fluorescence ratio>
0.961

$$$$
>  <construct_sequence>
GGCGGGGGGT

>  <assay_target>
ATP;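 further: ATP exposure 15 min at 22 °C before imaging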

>  <switch fluorescence ratio>
1.01

$$$$
>  <construct_sequence>
TTTGGGGGCC

>  <assay_target>
ATP;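 further: ATP exposure 15 min at 22 °C before imaging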

>  <switch fluorescence ratio>
1.01

$$$$
>  <construct_sequence>
ACATGGTTTT

>  <assay_target>
ATP;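 further: ATP exposure 15 min at 22 °C before imaging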

>  <switch fluorescence ratio>
1.01

$$$$
>  <construct_sequence>
AAAGTCAGTA

>  <assay_target>
ATP;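 further: ATP exposure 15 min at 22 °C before imaging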

>  <switch fluorescence ratio>
0.982

$$$$
>  <construct_sequence>
TGAGAGTAGG

>  <assay_target>
ATP;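 further: ATP exposure 15 min at 22 °C before imaging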

>  <switch fluorescence ratio>
0.984

$$$$
>  <construct_sequence>
ATAGCTCTCG

>  <assay_target>
ATP;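 further: ATP exposure 15 min at 22 °C before imaging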

>  <switch fluorescence ratio>
1.01

$$$$
>  <construct_sequence>
ACGGATGGCT

>  <assay_target>
ATP;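 further: ATP exposure 15 min at 22 °C before imaging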

>  <switch fluorescence ratio>
0.984

$$$$
>  <construct_sequence>
TATTCACTTG

>  <assay_target>
ATP;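 further: ATP exposure 15 min at 22 °C before imaging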

>  <switch fluorescence ratio>
1.04

$$$$
>  <construct_sequence>
CGGTAGCGCC

>  <assay_target>
ATP;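 further: ATP exposure 15 min at 22 °C before imaging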

>  <switch fluorescence ratio>
0.99

$$$$
>  <construct_sequence>
GGGAGTGGTG

>  <assay_target>
ATP;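 further: ATP exposure 15 min at 22 °C before imaging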

>  <switch fluorescence ratio>
1.12

$$$$

---

- Test system: ATP;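 further: ATP exposure 15 min at 22 °C before imaging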
- run_description: switch fluorescence ratio, 500 uM ATP over buffer (Cy3 cluster intensity, sum of 5 cycles each) (fold (ratio)); higher = stronger signal-on switching upon ATP binding; sequences stand for … in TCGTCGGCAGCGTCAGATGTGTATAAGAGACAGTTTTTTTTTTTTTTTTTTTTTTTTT…TC
- test_context: aptamer strand: ATP DNA aptamer (quencher-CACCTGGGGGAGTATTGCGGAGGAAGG + anchor), 100 nM annealed; ATP concentration: 500 uM
Some sequences, each annotated with its measured switch fluorescence ratio.
endpoint_label: switch fluorescence ratio

>  <construct_sequence>
GACAAATCTG

>  <endpoint_result>
1.04

$$$$
>  <construct_sequence>
CGTGCCATAG

>  <endpoint_result>
1

$$$$
>  <construct_sequence>
CCGTGGGGAT

>  <endpoint_result>
1.24

$$$$
>  <construct_sequence>
CGGGATGCCT

>  <endpoint_result>
1

$$$$
>  <construct_sequence>
CCATTAGGGG

>  <endpoint_result>
1.01

$$$$
>  <construct_sequence>
TAACTAAAGG

>  <endpoint_result>
0.997

$$$$
>  <construct_sequence>
GACGATTGCG

>  <endpoint_result>
1.01

$$$$
>  <construct_sequence>
ATGGATAATT

>  <endpoint_result>
1.04

$$$$
>  <construct_sequence>
GTTTTGTGTA

>  <endpoint_result>
1.01

$$$$
>  <construct_sequence>
CATATTTCGG

>  <endpoint_result>
0.995

$$$$
>  <construct_sequence>
GGGGCATAGT

>  <endpoint_result>
0.991

$$$$
>  <construct_sequence>
GGGGTACACT

>  <endpoint_result>
0.995

$$$$
>  <construct_sequence>
ATAGACGAGG

>  <endpoint_result>
0.981

$$$$
>  <construct_sequence>
TATGAACCGT

>  <endpoint_result>
0.984

$$$$
>  <construct_sequence>
TGTCACTGTG

>  <endpoint_result>
0.979

$$$$
>  <construct_sequence>
GAATTTTGG

>  <endpoint_result>
0.982

$$$$
>  <construct_sequence>
CTCTACGAGA

>  <endpoint_result>
0.983

$$$$
>  <construct_sequence>
ATTTAAGAAG

>  <endpoint_result>
0.99

$$$$
>  <construct_sequence>
GCTGTAGGGG

>  <endpoint_result>
1.02

$$$$
>  <construct_sequence>
AAAATTAGTT

>  <endpoint_result>
1.03

$$$$
>  <construct_sequence>
GGAGGAATTT

>  <endpoint_result>
1.01

$$$$

---

- Tested on: ATP;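 further: ATP exposure 15 min at 22 °C before imaging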
- run_description: switch fluorescence ratio, 500 uM ATP over buffer (Cy3 cluster intensity, sum of 5 cycles each) (fold (ratio)); higher = stronger signal-on switching upon ATP binding; sequences stand for … in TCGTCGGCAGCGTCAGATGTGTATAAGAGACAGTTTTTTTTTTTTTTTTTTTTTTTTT…TC
- test_context: aptamer strand: ATP DNA aptamer (quencher-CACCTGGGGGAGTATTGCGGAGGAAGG + anchor), 100 nM annealed; ATP concentration: 500 uM

>  <construct_sequence>
CGTCAAGGTG

>  <switch fluorescence ratio>
1.42

$$$$
>  <construct_sequence>
AGAATATTCT

>  <switch fluorescence ratio>
0.98

$$$$
>  <construct_sequence>
TTACTTGTTT

>  <switch fluorescence ratio>
1

$$$$
>  <construct_sequence>
GTAAATTATG

>  <switch fluorescence ratio>
0.986

$$$$
>  <construct_sequence>
TAATTTATCA

>  <switch fluorescence ratio>
1.01

$$$$
>  <construct_sequence>
AAGTCGCATT

>  <switch fluorescence ratio>
1.03

$$$$
>  <construct_sequence>
ACGTTATTGG

>  <switch fluorescence ratio>
1.14

$$$$
>  <construct_sequence>
AACCTGGGCC

>  <switch fluorescence ratio>
1.19

$$$$
>  <construct_sequence>
GGTATTCAGG

>  <switch fluorescence ratio>
1.03

$$$$
>  <construct_sequence>
GCATCGGGGG

>  <switch fluorescence ratio>
0.981

$$$$
>  <construct_sequence>
ATATACGGCA

>  <switch fluorescence ratio>
1.19

$$$$
>  <construct_sequence>
AGGGTTATGT

>  <switch fluorescence ratio>
0.971

$$$$
>  <construct_sequence>
TACGCCTGTG

>  <switch fluorescence ratio>
1.01

$$$$
>  <construct_sequence>
AATTGATGTT

>  <switch fluorescence ratio>
0.972

$$$$
>  <construct_sequence>
GGGGAGTGTT

>  <switch fluorescence ratio>
0.998

$$$$
>  <construct_sequence>
ACCTTAGGCC

>  <switch fluorescence ratio>
1.07

$$$$
>  <construct_sequence>
GATGATATTG

>  <switch fluorescence ratio>
0.992

$$$$
>  <construct_sequence>
TGTGGCAAGA

>  <switch fluorescence ratio>
1.14

$$$$
>  <construct_sequence>
TCGCTTATCG

>  <switch fluorescence ratio>
1.02

$$$$
>  <construct_sequence>
CTTTGAAGTT

>  <switch fluorescence ratio>
1.01

$$$$
>  <construct_sequence>
TACCGTTTAT

>  <switch fluorescence ratio>
1.02

$$$$
>  <construct_sequence>
ATTAGTTGTA

>  <switch fluorescence ratio>
1

$$$$
>  <construct_sequence>
AAATATGAGC

>  <switch fluorescence ratio>
0.993

$$$$
>  <construct_sequence>
AGGGATTGCG

>  <switch fluorescence ratio>
0.997

$$$$
>  <construct_sequence>
GGGCAAACGA

>  <switch fluorescence ratio>
1.12

$$$$
>  <construct_sequence>
ACGGGCTTTA

>  <switch fluorescence ratio>
1.03

$$$$
>  <construct_sequence>
TCTAAGCTGG

>  <switch fluorescence ratio>
0.988

$$$$
>  <construct_sequence>
AAGAGACCTT

>  <switch fluorescence ratio>
1.28

$$$$
>  <construct_sequence>
ATTGTATTTG

>  <switch fluorescence ratio>
1.01

$$$$
>  <construct_sequence>
GACGGCAGTG

>  <switch fluorescence ratio>
1

$$$$
>  <construct_sequence>
TAAATGGAAA

>  <switch fluorescence ratio>
0.999

$$$$
>  <construct_sequence>
ATGTCAGAGG

>  <switch fluorescence ratio>
0.977

$$$$
>  <construct_sequence>
ACTGTTAGGT

>  <switch fluorescence ratio>
1.04

$$$$
>  <construct_sequence>
TTAGTATATT

>  <switch fluorescence ratio>
1.03

$$$$
>  <construct_sequence>
GCCGTCTAAG

>  <switch fluorescence ratio>
0.993

$$$$
>  <construct_sequence>
TCATGGTATT

>  <switch fluorescence ratio>
1.01

$$$$
>  <construct_sequence>
GAACGGGGCG

>  <switch fluorescence ratio>
1.01

$$$$
>  <construct_sequence>
GGATGATCTT

>  <switch fluorescence ratio>
0.972

$$$$
>  <construct_sequence>
CGTTGAATAA

>  <switch fluorescence ratio>
1.02

$$$$
>  <construct_sequence>
TTCTGGGCGG

>  <switch fluorescence ratio>
1.02

$$$$
>  <construct_sequence>
GCTCTAGATG

>  <switch fluorescence ratio>
1.04

$$$$
>  <construct_sequence>
TTCCGGGGGC

>  <switch fluorescence ratio>
1.61

$$$$
>  <construct_sequence>
CAATGCGTAT

>  <switch fluorescence ratio>
1.01

$$$$
>  <construct_sequence>
TAAAGGGTTA

>  <switch fluorescence ratio>
0.985

$$$$
>  <construct_sequence>
CTTTTACTCG

>  <switch fluorescence ratio>
1.01

$$$$
>  <construct_sequence>
AATATCGGCA

>  <switch fluorescence ratio>
0.982

$$$$
>  <construct_sequence>
TTACCGAGGT

>  <switch fluorescence ratio>
1.03

$$$$
>  <construct_sequence>
GTTCGTGATA

>  <switch fluorescence ratio>
1.05

$$$$
>  <construct_sequence>
TTGAGTGTGC

>  <switch fluorescence ratio>
1.02

$$$$
>  <construct_sequence>
TTCTTAGCTT

>  <switch fluorescence ratio>
0.998

$$$$
>  <construct_sequence>
ATTTTTGTCT

>  <switch fluorescence ratio>
0.983

$$$$
>  <construct_sequence>
GGGGGGCAGG

>  <switch fluorescence ratio>
1.03

$$$$
>  <construct_sequence>
ATCACTAGGA

>  <switch fluorescence ratio>
1.04

$$$$
>  <construct_sequence>
TCGGGCGG

>  <switch fluorescence ratio>
1.03

$$$$
>  <construct_sequence>
TGGTTACCAT

>  <switch fluorescence ratio>
1.02

$$$$
>  <construct_sequence>
GATGTGGTGC

>  <switch fluorescence ratio>
1.02

$$$$
>  <construct_sequence>
ACCGCTGGTC

>  <switch fluorescence ratio>
1.13

$$$$
>  <construct_sequence>
CCAAATGAAT

>  <switch fluorescence ratio>
1.03

$$$$
>  <construct_sequence>
TTTTGTCTGC

>  <switch fluorescence ratio>
0.989

$$$$
>  <construct_sequence>
TTGTGTGTAT

>  <switch fluorescence ratio>
0.992

$$$$
>  <construct_sequence>
GAGGAGTGAA

>  <switch fluorescence ratio>
0.997

$$$$
>  <construct_sequence>
AGTGGGTTGG

>  <switch fluorescence ratio>
0.99

$$$$
>  <construct_sequence>
CCTGGTCGGC

>  <switch fluorescence ratio>
1.02

$$$$
>  <construct_sequence>
CGACGTGAGT

>  <switch fluorescence ratio>
1.04

$$$$
>  <construct_sequence>
TATATAGGGA

>  <switch fluorescence ratio>
0.981

$$$$
>  <construct_sequence>
AGTAAGGGCA

>  <switch fluorescence ratio>
1.01

$$$$
>  <construct_sequence>
GTGGAAGCTT

>  <switch fluorescence ratio>
1.01

$$$$
>  <construct_sequence>
CAGATGGTCG

>  <switch fluorescence ratio>
0.938

$$$$
>  <construct_sequence>
TGGGTTTGGG

>  <switch fluorescence ratio>
0.984

$$$$
>  <construct_sequence>
AGGTTGTTTT

>  <switch fluorescence ratio>
0.977

$$$$
>  <construct_sequence>
CGTGACGGTT

>  <switch fluorescence ratio>
1.03

$$$$
>  <construct_sequence>
CCTTTAATGT

>  <switch fluorescence ratio>
1.01

$$$$
>  <construct_sequence>
TGTTGTTTCG

>  <switch fluorescence ratio>
0.989

$$$$
>  <construct_sequence>
GATATTCTTT

>  <switch fluorescence ratio>
0.988

$$$$
>  <construct_sequence>
GAAATAAAAG

>  <switch fluorescence ratio>
0.98

$$$$
>  <construct_sequence>
CAGATGGACG

>  <switch fluorescence ratio>
0.968

$$$$
>  <construct_sequence>
GGGAGGAGGG

>  <switch fluorescence ratio>
0.976

$$$$
>  <construct_sequence>
TTAAGTTGAG

>  <switch fluorescence ratio>
0.983

$$$$
>  <construct_sequence>
GGGGTTTGCC

>  <switch fluorescence ratio>
0.968

$$$$
>  <construct_sequence>
CTAATAGTTT

>  <switch fluorescence ratio>
1

$$$$
>  <construct_sequence>
GTTTTGTCAT

>  <switch fluorescence ratio>
1.01

$$$$
>  <construct_sequence>
GCTTCCTTGG

>  <switch fluorescence ratio>
1.31

$$$$
>  <construct_sequence>
ACTATTTGCG

>  <switch fluorescence ratio>
0.991

$$$$
>  <construct_sequence>
ATGGGGGCCG

>  <switch fluorescence ratio>
1.01

$$$$
>  <construct_sequence>
GCTATGAAAA

>  <switch fluorescence ratio>
0.986

$$$$
>  <construct_sequence>
CGTGAGCTTG

>  <switch fluorescence ratio>
1

$$$$
